Catalogue of molecules with associated pIC50
# system-tested: integrin α4β1 (Homo sapiens, UniProt P05556+P13612)
# Construct: cell strain Jurkat (ATCC TIB-152) of human T cells, known to express integrin α4β1; host or cells: Jurkat (human T cell line)
# Sequence (P05556 21-798, one chain of several): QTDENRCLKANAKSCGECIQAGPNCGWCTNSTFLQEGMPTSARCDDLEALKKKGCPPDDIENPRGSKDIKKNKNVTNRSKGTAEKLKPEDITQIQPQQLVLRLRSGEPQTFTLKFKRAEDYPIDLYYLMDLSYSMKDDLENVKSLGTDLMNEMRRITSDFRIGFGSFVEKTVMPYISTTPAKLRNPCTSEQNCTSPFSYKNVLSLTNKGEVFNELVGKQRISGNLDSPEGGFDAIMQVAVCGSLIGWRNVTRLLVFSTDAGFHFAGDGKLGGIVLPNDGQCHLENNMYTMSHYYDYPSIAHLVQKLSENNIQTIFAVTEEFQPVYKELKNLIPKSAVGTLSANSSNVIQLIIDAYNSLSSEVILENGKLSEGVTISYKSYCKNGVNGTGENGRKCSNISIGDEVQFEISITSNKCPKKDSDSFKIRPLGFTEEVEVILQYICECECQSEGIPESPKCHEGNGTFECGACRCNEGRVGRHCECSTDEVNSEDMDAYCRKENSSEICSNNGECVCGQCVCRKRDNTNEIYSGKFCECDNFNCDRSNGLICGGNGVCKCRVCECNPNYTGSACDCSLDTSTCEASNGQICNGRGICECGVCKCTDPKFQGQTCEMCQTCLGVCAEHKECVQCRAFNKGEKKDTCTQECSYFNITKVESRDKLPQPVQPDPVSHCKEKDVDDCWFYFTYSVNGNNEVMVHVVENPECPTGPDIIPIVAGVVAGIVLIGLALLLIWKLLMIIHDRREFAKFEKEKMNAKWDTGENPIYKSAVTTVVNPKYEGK
# experiment-notes: VCAM antagonist activity (VCAM-1/α4β1 binding assay)
# Format: cell-based
# condition-description: Jurkat cells binding to VCAM-1; read-out: VCAM antagonistic activity (IC50) α4β1
pIC50: −log10 of the molar value.

Reference set, count: 3
molecule	pIC50
CCC(CC)(C(=O)N[C@@H](Cc1ccc(NC(=O)c2cc(Br)ccc2Cl)cc1)C(=O)O)C(=O)N1CCCC1	7.00 to 7.70
CCC(CC)(C(=O)N[C@@H](Cc1ccc(OCc2c(Cl)cccc2Cl)cc1)C(=O)O)C(=O)N1CCSCC1	5.70 to 7.00
CCC(C)(C(=O)NC(Cc1ccc(OCc2c(Cl)cccc2Cl)cc1)C(=O)O)C(=O)N1CCCC1 (mixture of isomers)	5.70 to 7.00

Query :: Which pIC50 is listed for O=C1CCN(C(=O)C2(C(=O)N[C@@H](Cc3ccc(OCc4c(Cl)cccc4Cl)cc3)C(=O)O)CC2)C1 ?
Result :: 5.70 to 7.00

Query :: Dear colleague, I am looking for the recorded pIC50 of the following molecule: CCC(CC)(C(=O)N[C@@H](Cc1ccc(NC(=O)c2nc(NC)ncc2Cl)cc1)C(=O)O)C(=O)N1CCCC1
Result :: 7.00 to 7.70

Query :: Query (molecule): C#CCn1c(=O)n(-c2ccc(C[C@H](NC(=O)C(CC)(CC)C(=O)N3CCCC3)C(=O)O)cc2)c(=O)c2ccccc21 ; field requested: pIC50
Result :: 5.70 to 7.00

Query :: I am curious: what pIC50 value has been reported for CCC(CC)(C(=O)N[C@@H](Cc1ccc(OCc2c(Cl)cccc2Cl)cc1)C(=O)O)C(=O)N1CCCC1 ?
Result :: 5.70 to 7.00

Query :: Fill in: pIC50 of CCC(CC)(C(=O)N[C@@H](Cc1ccc(NC(=O)c2cc(OC)ccc2Br)cc1)C(=O)O)C(=O)N1CCCC1 is ___
Result :: 7.00 to 7.70

###

# system-tested: integrin α4β7 (Homo sapiens, UniProt P13612+P26010)
# Construct: lymphoma cell strain RPMI-8866 of human B cells, known to express integrin α4β7; endogenous in cells; host or cells: RPMI-8866 (human B lymphoma cell line)
# Sequence (P13612 34-1032): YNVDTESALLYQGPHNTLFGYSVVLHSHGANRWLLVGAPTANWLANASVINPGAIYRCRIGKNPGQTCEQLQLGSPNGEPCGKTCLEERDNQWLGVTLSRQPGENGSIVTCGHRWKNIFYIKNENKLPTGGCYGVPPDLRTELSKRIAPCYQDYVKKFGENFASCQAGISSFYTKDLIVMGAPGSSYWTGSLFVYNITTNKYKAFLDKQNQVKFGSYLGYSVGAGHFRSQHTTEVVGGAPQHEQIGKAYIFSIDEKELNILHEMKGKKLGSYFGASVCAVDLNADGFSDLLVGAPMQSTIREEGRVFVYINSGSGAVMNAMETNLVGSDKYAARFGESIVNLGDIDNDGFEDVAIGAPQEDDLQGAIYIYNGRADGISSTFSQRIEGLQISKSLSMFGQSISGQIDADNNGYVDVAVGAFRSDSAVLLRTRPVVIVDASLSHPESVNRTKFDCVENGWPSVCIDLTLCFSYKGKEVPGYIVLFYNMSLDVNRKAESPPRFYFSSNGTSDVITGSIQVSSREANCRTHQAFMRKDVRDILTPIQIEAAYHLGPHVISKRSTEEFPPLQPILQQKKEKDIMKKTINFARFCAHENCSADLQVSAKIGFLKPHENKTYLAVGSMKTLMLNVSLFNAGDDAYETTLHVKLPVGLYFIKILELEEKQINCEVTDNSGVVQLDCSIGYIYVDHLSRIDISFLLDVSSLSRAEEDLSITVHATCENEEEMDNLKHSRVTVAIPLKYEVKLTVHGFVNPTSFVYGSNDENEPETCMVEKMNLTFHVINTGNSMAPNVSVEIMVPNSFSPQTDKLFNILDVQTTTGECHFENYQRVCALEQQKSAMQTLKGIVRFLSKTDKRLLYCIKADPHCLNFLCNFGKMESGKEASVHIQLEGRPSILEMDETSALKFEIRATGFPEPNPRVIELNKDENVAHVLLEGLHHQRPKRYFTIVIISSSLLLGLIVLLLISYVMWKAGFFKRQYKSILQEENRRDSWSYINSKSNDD
# Sequence (P26010 20-798): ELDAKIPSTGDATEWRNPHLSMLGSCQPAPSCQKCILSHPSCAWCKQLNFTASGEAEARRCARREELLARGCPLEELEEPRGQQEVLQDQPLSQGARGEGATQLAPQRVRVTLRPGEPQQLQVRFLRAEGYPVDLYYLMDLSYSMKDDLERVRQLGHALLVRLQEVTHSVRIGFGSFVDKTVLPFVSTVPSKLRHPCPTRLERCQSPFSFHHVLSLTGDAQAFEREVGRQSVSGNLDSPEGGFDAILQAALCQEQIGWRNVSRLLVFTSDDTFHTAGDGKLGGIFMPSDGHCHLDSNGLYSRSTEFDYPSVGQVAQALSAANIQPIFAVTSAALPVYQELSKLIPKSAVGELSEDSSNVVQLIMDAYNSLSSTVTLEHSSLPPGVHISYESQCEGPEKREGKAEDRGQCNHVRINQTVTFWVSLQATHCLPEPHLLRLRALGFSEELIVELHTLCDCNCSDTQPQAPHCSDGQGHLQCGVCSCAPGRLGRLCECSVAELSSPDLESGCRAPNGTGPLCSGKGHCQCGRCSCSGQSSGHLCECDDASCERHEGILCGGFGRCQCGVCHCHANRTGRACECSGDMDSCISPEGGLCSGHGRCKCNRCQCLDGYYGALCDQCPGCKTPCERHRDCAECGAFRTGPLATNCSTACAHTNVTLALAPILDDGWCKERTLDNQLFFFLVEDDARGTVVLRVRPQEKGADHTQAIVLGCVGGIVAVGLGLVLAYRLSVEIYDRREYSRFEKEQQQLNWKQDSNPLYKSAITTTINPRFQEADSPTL
# experiment-notes: VCAM antagonistic activity (VCAM-1/α4β7 binding assay)
# Assay type: cell-based
# condition-description: RPMI-8866 cells binding to VCAM-1; read-out: VCAM antagonistic activity (IC50) α4β7
pIC50: −log10 of the molar value.
reported-property: pIC50

compound	system-tested	pIC50
CCC(CC)(C(=O)N[C@@H](Cc1ccc(OCc2c(Cl)cccc2Cl)cc1)C(=O)O)C(=O)N1CC[C@@H](F)C1 [Example 84]	integrin α4β7 (Homo sapiens, UniProt P13612+P26010)	> 7.70
CCC(CC)(C(=O)N[C@@H](Cc1ccc(OCc2c(Cl)cccc2Cl)cc1)C(=O)O)C(=O)N1CCCCC1 [Example 17]	integrin α4β7 (Homo sapiens, UniProt P13612+P26010)	5.70 to 7.00
O=C(O)[C@H](Cc1ccc(OCc2c(Cl)cccc2Cl)cc1)NC(=O)C1(C(=O)N2CCCC2)CCOCC1 [Example 58]	integrin α4β7 (Homo sapiens, UniProt P13612+P26010)	5.70 to 7.00
CCCC(CC)(C(=O)NC(Cc1ccc(OCc2c(Cl)cccc2Cl)cc1)C(=O)O)C(=O)N1CCCC1 (mixture of isomers) [Example 37]	integrin α4β7 (Homo sapiens, UniProt P13612+P26010)	7.00 to 7.70

Shifting focus to the compound that follows.
Query :: Consider the compound CN(C)C(=O)C1(C(=O)N[C@@H](Cc2ccc(NC(=O)c3c(Cl)cccc3Cl)cc2)C(=O)O)CC1 [Example 90] and give its measured pIC50.
Result :: 7.00 to 7.70
